Read-out record for Adenosylhomocysteinase (Mus musculus): pIC50
Quick note: pIC50 means taking -log10 of the concentration in moles per liter.

Consider the following illustrative entries.
C/C(=C/Cn1cnc2c(N)ncnc21)CO | 3.70
Nc1nccc2c1ncn2CC=C(CO)CO | 3.96

// switching to the query compound
Lab note: record pIC50 of Nc1ncnc2c1ncn2C/C=C/CO tested on Adenosylhomocysteinase (Mus musculus).
Sequence (P50247 whole entry): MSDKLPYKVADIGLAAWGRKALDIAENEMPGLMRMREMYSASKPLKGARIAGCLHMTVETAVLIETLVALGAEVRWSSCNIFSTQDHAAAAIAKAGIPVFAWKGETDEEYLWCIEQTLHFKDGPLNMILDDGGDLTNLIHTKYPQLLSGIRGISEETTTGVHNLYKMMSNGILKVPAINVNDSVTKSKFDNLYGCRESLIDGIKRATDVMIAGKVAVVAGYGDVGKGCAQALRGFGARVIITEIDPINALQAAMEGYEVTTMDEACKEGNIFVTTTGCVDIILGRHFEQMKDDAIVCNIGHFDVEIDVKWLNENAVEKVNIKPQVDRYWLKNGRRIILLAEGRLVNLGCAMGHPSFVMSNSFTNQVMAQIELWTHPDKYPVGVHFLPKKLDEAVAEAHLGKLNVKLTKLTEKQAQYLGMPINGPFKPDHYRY
3.64

----------
# assay-target: Adenosylhomocysteinase (Mus musculus)
measured-quantity: pIC50
Conceptually, pIC50 converts a concentration in mol/L into minus its log10.

Sample records with pIC50:
Nc1ncnc2c1ncn2C/C=C\[C@@H](O)CO | 4.00
Nc1nccc2c1ncn2C/C=C\[C@@H](O)CO | 4.21
Nc1nccc2c1ncn2CC#CCO | 3.70
Nc1ncnc2c1ncn2[C@@H]1C=C(CO)[C@@H](O)[C@H]1O [NEOPLANOCIN A] | 7.30

Identify measured pIC50 obtained with Adenosylhomocysteinase (Mus musculus) for Nc1nccc2c1ncn2C/C=C\CO .
3.70

Tell me pIC50 of Nc1ncnc2c1ncn2C/C=C\CO when tested on Adenosylhomocysteinase (Mus musculus).
3.84

State the measured pIC50 (Adenosylhomocysteinase (Mus musculus)) of Nc1ncnc2c1ncn2CC=C(CO)CO
4.19

This collection of values is drawn from ChEMBL document CHEMBL1124198.
